assay: inhibitors of the yeast RAM network, pilot screen, dse1pr::URA3 reporter, 5-FOA selection (AID 869);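 also: 0% = DMSO wells with no growth and 100% = 10 µM 1-NA-PP1 with full growth; RAM network block rescues cells from 5-FOA so hits raise OD615 growth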; details: S. cerevisiae dse1pr::URA3 5-FOA growth, OD615, 2 d; at 10 µM; hits give high values; strain carries analog-sensitive mutant Cbk1 kinase
QUANTITY KIND: inhibition (%)

{"columns": ["COMPOUND", "QUANTITY KIND", "VALUE UNITS", "MEASURED RESULT"],
 "data": [
  ["CCOC(=O)C1CCN(C(=O)Cn2cc3c(n2)CCC(C)C3)CC1 (stereo not drawn)", "inhibition", "%", 1.87],
  ["COc1ccc(C2CC(c3ccc(Cl)c(Cl)c3)Nc3nc(N)nn32)cc1 (stereo not drawn)", "inhibition", "%", 2.52],
  ["Cc1ccc(C)c(N(C)S(=O)(=O)c2cccc3nsnc23)c1", "inhibition", "%", 0.92],
  ["Cc1ccc(C(=O)NCc2ccc(Cl)c(Cl)c2)o1", "inhibition", "%", 0.67],
  ["CCOc1ccc(N(CC(=O)Nc2nccs2)S(=O)(=O)c2c(C)noc2C)cc1", "inhibition", "%", 1.25],
  ["O=C(Cn1nc(-c2ccc(Cl)cc2)ccc1=O)NCC1CCCO1 (stereo not drawn)", "inhibition", "%", 1.24],
  ["Cn1c(C(C#N)C(=O)Cc2cccc3ccccc23)nc2ccccc21 (stereo not drawn)", "inhibition", "%", 2.59],
  ["COc1ccc(-n2c(SCC(=O)Nc3ccccc3)nc3c(c2=O)SCC3)cc1", "inhibition", "%", 0.755],
  ["CCOC(=O)N1CCN(C(=O)CSc2nnc(-c3ccc(C(C)(C)C)cc3)o2)CC1", "inhibition", "%", 0.505],
  ["CCCCOc1cccc(C2(C(=O)O)CCCC2)c1", "inhibition", "%", 1.21],
  ["CCOc1ccc(Nc2ncnc(N)n2)cc1", "inhibition", "%", 0.055],
  ["O=C(COC(=O)c1ccc(S(=O)(=O)N2CCOCC2)cc1)NC1CCCCCC1", "inhibition", "%", 1.42],
  ["COc1ccc(-c2cc(C(F)(F)F)n3nc(C(=O)N4CCCC4)cc3n2)cc1", "inhibition", "%", 1.71],
  ["CCOCN(C(=O)Cn1c(CO)nc2ccccc21)c1c(C)cccc1CC", "inhibition", "%", 2.68],
  ["NC(=O)SCC(=O)Nc1ccc(Cl)c(Cl)c1", "inhibition", "%", 2.52],
  ["CCSc1nnc(NC(=O)c2cccc(OCc3c(C)noc3C)c2)s1", "inhibition", "%", 2.79],
  ["O=C(C1CC1)N1CCc2cc(Br)cc(S(=O)(=O)NC3CCCCC3)c21", "inhibition", "%", 0.275],
  ["NC(=O)c1ccsc1NC(=O)c1ccco1", "inhibition", "%", 1.1],
  ["Cc1cc(C)c(C)c(OCC(=O)NCCN(C)C)c1", "inhibition", "%", 0.79],
  ["CCOc1ccc(CC(=O)N2CCN(c3ccc(N4CCOCC4)nn3)CC2)cc1OCC", "inhibition", "%", -0.385],
  ["CCN(CC)S(=O)(=O)c1ccc(NC2c3ccccc3C(=O)N2Cc2ccc3c(c2)OCO3)cc1 (stereo not drawn)", "inhibition", "%", -0.09],
  ["COCCn1c(SCC(N)=O)nc2c(c1=O)SC(C)C2 (stereo not drawn)", "inhibition", "%", 1.84],
  ["O=C(Nc1cccc2ccccc12)N1CCN(c2ccc(F)cc2)CC1", "inhibition", "%", 1.88]
]}
